- targetOfAssay: Human recombinant liver glycogen phosphorylase a (hrl GPα) (Homo sapiens, UniProt P06737)
- Sequence (P06737 whole entry): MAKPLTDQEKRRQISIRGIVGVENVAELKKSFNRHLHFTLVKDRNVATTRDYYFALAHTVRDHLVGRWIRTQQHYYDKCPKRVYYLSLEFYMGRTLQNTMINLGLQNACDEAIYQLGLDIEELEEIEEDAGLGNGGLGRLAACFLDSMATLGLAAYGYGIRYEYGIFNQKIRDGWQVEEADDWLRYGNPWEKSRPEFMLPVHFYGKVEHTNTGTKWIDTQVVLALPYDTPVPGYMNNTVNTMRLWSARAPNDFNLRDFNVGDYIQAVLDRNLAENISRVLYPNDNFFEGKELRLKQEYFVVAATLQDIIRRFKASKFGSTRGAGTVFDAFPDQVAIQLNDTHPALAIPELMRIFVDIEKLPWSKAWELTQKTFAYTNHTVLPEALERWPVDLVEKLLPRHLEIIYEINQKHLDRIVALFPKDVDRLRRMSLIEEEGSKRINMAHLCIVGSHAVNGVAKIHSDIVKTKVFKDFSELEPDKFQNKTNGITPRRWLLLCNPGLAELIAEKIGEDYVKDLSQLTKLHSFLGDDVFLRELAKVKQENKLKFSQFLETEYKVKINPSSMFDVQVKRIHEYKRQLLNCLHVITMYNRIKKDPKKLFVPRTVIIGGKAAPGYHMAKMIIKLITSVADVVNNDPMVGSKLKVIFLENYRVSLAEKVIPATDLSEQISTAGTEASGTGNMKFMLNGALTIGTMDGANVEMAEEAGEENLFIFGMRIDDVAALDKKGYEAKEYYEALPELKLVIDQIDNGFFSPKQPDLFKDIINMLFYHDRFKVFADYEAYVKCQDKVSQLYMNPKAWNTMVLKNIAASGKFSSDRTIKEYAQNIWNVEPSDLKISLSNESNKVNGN
- protocol: glycogen phosphorylase inhibition, multienzyme coupled assay (glucose-1-phosphate production from glycogen)
- Type: biochemical
- conditions: hrl GPα 20 nM, 6 hours at 30° C.
pIC50: −log10 of the molar value.
readoutKind: pIC50

[
  {
    "chemicalSmiles": "O=C(N[C@@H]1Cc2ccccc2[C@H]1CO)c1cc2cc(Cl)sc2[nH]1",
    "readoutKind": "pIC50",
    "reportedResult": 6.31
  }
]
